Molecular target: Active human recombinant ROCK II (N-terminal His6-tagged recombinant human ROCK-II residues 11-552) (Homo sapiens, UniProt O75116)
Construct: recombinant human ROCK-II residues 11-552; His6 (N); purchased Upstate Ltd., Dundee, UK
Sequence (O75116 11-552): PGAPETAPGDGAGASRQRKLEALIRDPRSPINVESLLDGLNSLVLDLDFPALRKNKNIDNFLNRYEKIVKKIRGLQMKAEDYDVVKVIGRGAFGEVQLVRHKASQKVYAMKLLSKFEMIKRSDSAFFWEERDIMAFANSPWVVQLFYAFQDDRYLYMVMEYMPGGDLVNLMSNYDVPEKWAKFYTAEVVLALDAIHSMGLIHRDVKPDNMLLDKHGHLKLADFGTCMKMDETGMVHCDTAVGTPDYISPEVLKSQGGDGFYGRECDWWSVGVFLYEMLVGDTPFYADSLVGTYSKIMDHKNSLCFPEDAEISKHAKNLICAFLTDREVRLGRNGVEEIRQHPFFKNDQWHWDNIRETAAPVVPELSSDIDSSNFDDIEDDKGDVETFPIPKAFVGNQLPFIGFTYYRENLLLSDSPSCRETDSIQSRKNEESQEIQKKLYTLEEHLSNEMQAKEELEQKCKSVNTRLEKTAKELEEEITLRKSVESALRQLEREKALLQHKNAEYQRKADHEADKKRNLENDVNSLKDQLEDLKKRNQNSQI
Assay: Determination of Rho-kinase activity (Rho-kinase inhibition, Caliper peptide phosphorylation assay)
Format: biochemical
Details: Fluorescein-AKRRRLSSLRA-COOH peptide substrate and ATP, 60 min incubation at 32° C., tested as the form (salt or free base) obtained in the examples, read-out: pIC50 (negative decadal logarithm of the IC50), Rho-kinase inhibition (converted)
Measure: IC50

Worked set:
• O=C(NCc1ccccc1Cl)[C@@H]1C[C@@H](Oc2ccc3cnccc3c2)CCN1 = ≤ 1000 nM
• COCCNC(=O)[C@H]1CNC[C@@H]1Nc1ccc2cnccc2c1 = 1000 to 10000 nM

Recall and state the measured IC50 for O=C(NCc1ccco1)[C@@H]1C[C@H](Nc2ccc3cnccc3c2)CN1 .
1000 to 10000 nM

Read the entry C#CCNC(=O)[C@@H]1C[C@@H](Oc2ccc3cnccc3c2)CN1 and write its reported IC50.
≤ 1000 nM

Look up IC50 of Cc1ccccc1NC(=O)[C@H]1CNC[C@@H]1Nc1ccc2cnccc2c1 and report it.
≤ 1000 nM

Look up IC50 of O=C(NCCc1ccccc1)[C@@H]1C[C@H](Nc2ccc3cnccc3c2)CN1 and report it.
≤ 1000 nM

Query IC50 for O=C(NCCO)[C@@H]1C[C@@H](Oc2ccc3cnccc3c2)CN1
1000 to 10000 nM

Provide measured IC50 value, entry: Cc1cc2c(=O)[nH]ccc2cc1O[C@H]1C[C@H]2CC[C@@H](C1)N2C
≤ 1000 nM

====

Target: Active human recombinant ROCK II (N-terminal His6-tagged recombinant human ROCK-II residues 11-552) (Homo sapiens, UniProt O75116)
Construct: recombinant human ROCK-II residues 11-552; His6 (N); purchased Upstate Ltd., Dundee, UK
Assay: Determination of Rho-kinase activity (Rho-kinase inhibition, Caliper peptide phosphorylation assay)
Assay type: biochemical
Settings: Fluorescein-AKRRRLSSLRA-COOH peptide substrate and ATP, 60 min incubation at 32° C., tested as the form (salt or free base) obtained in the examples, read-out: pIC50 (negative decadal logarithm of the IC50), Rho-kinase inhibition (converted)
Measure: IC50

These recorded examples may help you get a feel for the data.
* O=c1[nH]ccc2cc(OC3(c4ccccc4)CCN(Cc4ccccc4)CC3)c(Cl)cc12 [Compound 69] | 1000 to 10000 nM
* CN1[C@@H]2CC[C@H]1C[C@@H](Oc1cc3cc[nH]c(=O)c3cc1Cl)C2 [Compound 75] | ≤ 1000 nM
* O=C(NCCc1ccccc1)[C@@H]1C[C@@H](Oc2ccc3cnccc3c2)CCN1 [Compound 21] | 1000 to 10000 nM

Specify measured IC50 for COc1cccc(CNC(=O)[C@H]2CNC[C@@H]2Nc2ccc3cnccc3c2)c1 [Compound 48] .
≤ 1000 nM
